FYI, the data here is from patent US20240208895A1.

molecular target: human transporter MCT1 (Homo sapiens); construct: expressed in transfected cells; host or cells: MDCK-II; experiment: Human MCT1-mediated transport in MDCK-II cells (Example 9); assay type: cell-based; settings: MDCK-II cells expressing human MCT1, pH 5.5, 1 minute, normalized to Vmax of thiophene-2-glyoxylic acid
Sequence (P53985 whole entry): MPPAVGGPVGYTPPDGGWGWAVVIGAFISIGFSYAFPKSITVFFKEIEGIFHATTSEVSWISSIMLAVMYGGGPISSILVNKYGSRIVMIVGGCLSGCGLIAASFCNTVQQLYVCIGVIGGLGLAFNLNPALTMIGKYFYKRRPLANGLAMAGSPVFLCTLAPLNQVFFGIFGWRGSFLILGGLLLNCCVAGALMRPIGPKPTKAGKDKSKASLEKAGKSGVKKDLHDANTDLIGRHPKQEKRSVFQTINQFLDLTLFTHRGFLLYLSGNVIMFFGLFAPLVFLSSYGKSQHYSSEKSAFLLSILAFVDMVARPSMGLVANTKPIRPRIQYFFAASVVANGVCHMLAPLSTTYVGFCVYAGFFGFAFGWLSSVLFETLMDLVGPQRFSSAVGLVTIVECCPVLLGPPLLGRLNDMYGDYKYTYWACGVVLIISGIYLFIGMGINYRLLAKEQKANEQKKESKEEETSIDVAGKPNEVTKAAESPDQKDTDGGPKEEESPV
Value type: uptake mediated by MCT1

CCC(=O)N[C@H](C(=O)O)C(C)C = transported
CCC(=O)N[C@H](C(=O)O)[C@@H](C)CC = transported
CC(=O)N[C@@H](CC(C)C)C(=O)O = transported

* * *

target: PepT1 (Homo sapiens); assay: Inhibition of PepT1 uptake of known substrate Gly-Sar; conditions: probe substrate Gly-Sar 50 μM
Sequence (P46059 whole entry): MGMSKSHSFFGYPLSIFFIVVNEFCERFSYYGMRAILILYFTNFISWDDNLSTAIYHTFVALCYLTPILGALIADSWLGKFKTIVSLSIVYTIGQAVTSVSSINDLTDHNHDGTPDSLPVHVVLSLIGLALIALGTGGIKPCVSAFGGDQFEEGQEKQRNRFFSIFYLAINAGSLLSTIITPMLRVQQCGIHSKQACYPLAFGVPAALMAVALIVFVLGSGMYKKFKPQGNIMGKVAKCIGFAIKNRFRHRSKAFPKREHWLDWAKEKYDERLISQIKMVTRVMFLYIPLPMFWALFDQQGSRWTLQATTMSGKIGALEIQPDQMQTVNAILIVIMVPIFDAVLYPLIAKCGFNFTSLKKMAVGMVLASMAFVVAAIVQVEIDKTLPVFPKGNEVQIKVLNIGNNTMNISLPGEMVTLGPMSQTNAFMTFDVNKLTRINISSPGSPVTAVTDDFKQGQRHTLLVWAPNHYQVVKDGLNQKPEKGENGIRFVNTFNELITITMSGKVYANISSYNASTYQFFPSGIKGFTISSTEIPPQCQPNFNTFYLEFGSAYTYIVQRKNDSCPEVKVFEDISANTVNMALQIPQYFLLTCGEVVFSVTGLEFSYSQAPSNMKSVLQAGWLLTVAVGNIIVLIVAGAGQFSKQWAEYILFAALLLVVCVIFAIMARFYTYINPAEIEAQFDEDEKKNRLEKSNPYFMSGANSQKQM
Value type: IC50 (µM)
Kindly provide the numeric value in µM only, without the unit symbol.

Please state recorded IC50 (tested on PepT1 (Homo sapiens)) of CC(=O)N[C@@H](CC(C)C)C(=O)O
740

* * *

experiment: physchem; format: physicochemical
Value type: logD
Output spec: single numeric token, no unit.

Quick check: logD of CC(=O)N[C@@H](CC(C)C)C(=O)O [N-acetyl-L-leucine] ?
-2.54

* * *

molecular target: OAT1 (SLC22A6) (Homo sapiens, UniProt Q4U2R8); construct: host or cells: HEK-293; assay: Inhibition of OAT1 uptake of known substrate chlorothiazide; assay type: cell-based; details: probe substrate chlorothiazide 3 μM
Sequence (Q4U2R8 whole entry): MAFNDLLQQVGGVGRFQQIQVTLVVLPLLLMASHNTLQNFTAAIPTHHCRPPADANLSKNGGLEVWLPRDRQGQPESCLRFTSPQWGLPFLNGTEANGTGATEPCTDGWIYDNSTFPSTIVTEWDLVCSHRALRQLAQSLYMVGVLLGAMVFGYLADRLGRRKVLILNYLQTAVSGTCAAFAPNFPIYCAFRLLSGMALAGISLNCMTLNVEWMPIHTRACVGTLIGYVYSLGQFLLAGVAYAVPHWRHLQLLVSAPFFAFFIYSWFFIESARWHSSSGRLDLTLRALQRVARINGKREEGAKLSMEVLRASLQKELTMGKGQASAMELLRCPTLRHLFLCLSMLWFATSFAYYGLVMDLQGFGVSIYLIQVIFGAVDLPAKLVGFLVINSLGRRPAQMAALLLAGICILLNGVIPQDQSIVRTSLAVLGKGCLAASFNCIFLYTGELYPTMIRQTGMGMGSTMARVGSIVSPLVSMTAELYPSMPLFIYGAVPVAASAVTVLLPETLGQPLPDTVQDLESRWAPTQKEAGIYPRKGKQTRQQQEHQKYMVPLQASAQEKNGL
Value type: pIC50
A value of pIC50 is the negative decimal logarithm of a concentration given in moles per litre.

Quick check: pIC50 of CC(=O)N[C@@H](CC(C)C)C(=O)O [N-acetyl-L-leucine] ?
2.21
